Quick list: residual activity per entry.
biological target: JAK3 JH1 JH2 (human); assay: radiometric filter-binding kinase assay, Kinase HotSpot; details: compound 0.5 µM; ATP 10 µM
Please format your answer as a value with the unit trailing.

Oc1cccc(-c2nc(N3CCOCC3)c3oc4ncccc4c3n2)c1 ... 99%
O=C1Nc2ccc(Cl)cc2/C1=C/c1cc(Cl)c(O)c(Cl)c1 ... 100%
CC(=O)c1ccc(N2CCOCC2)cc1O ... 104%
Cc1ccc(S(=O)(=O)/C=C/C#N)cc1 ... 101%
CCCC(=O)Oc1ccc2[nH]c(C(=O)c3cc4ccccc4[nH]3)cc2c1 ... 95.6%
O=C1NC(=O)C(c2cn(CCCn3ccnc3)c3ccccc23)=C1Nc1ccccc1 ... 7.97%
CCN(CC)C(=O)c1ccc(Nc2nc(OCC3CCCCC3)c3nc[nH]c3n2)cc1 ... 6.39%
CCN(CC)CCNC(=O)c1c(C)[nH]c(/C=C2\C(=O)Nc3ccc(F)cc32)c1C ... 80.7%

Noted for `O=c1cc(N2CCOCC2)oc2c1ccc1ccccc12` : its residual activity reads 103%

Noted for `Cc1ccc(NC2=CC(=O)c3sc(C)nc3C2=O)cc1` : its residual activity reads 97.4%

Noted for `c1ccc(-c2n[nH]c3c2oc2ccccc23)cc1` : its residual activity reads 132%

====

Quick list: residual activity per entry.
molecular target: DYRK2 (human) (UniProt Q92630); test: radiometric filter-binding kinase assay, Kinase HotSpot; conditions: compound 0.5 µM; ATP 10 µM
Sequence (Q92630 whole entry, looked up): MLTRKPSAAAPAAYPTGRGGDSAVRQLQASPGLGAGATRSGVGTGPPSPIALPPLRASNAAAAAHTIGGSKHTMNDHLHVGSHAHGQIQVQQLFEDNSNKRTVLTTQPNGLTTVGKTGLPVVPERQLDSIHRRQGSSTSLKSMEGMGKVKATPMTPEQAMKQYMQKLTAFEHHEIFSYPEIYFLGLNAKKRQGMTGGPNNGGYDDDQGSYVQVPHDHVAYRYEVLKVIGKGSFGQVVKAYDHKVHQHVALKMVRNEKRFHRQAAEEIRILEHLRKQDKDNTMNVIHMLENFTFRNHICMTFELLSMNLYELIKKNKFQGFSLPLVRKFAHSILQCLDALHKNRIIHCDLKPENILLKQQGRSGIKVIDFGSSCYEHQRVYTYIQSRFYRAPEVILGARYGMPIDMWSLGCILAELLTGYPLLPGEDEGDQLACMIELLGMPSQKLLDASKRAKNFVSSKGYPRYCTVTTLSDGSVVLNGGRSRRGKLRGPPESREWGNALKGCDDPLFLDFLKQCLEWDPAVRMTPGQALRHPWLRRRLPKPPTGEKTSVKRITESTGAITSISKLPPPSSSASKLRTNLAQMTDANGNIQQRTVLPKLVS
Please format your answer as a value with the unit trailing.

Here's what some known entries look like.
O=C1Nc2ccc(Cl)cc2/C1=C/c1cc(Cl)c(O)c(Cl)c1 ... 94%
CC(C)N(CCC(=O)c1ccc2ccccc2c1)Cc1ccccc1 ... 118%
Cc1[nH]c(/C=C2\C(=O)Nc3ccc(S(=O)(=O)N(C)c4cccc(Cl)c4)cc32)c(C)c1C(=O)N1CCN(C)CC1 ... 101%

residual activity of `COc1ccc(COc2ccc(Cc3cnc(N)nc3N)cc2OC)cc1` , assay on DYRK2 (human) (UniProt Q92630), is 105%

residual activity of `CCN(CC)CCNC(=O)c1c(C)[nH]c(/C=C2\C(=O)Nc3ccc(F)cc32)c1C` , assay on DYRK2 (human) (UniProt Q92630), is 82.6%

====

Quick list: residual activity per entry.
target: PRKCB1 (human); assay: radiometric filter-binding kinase assay, Kinase HotSpot; conditions: compound 0.5 µM; ATP 10 µM
Just the number please, in %, no unit attached.

residual activity of `COc1cc2ncnc(Nc3cccc(Cl)c3)c2cc1OC` , assay on PRKCB1 (human), is 103

====

target: MAPKAPK5 (human) (UniProt Q8IW41); experiment: radiometric filter-binding kinase assay, Kinase HotSpot; conditions: compound 0.5 µM; ATP 10 µM
Sequence (Q8IW41 whole entry, looked up): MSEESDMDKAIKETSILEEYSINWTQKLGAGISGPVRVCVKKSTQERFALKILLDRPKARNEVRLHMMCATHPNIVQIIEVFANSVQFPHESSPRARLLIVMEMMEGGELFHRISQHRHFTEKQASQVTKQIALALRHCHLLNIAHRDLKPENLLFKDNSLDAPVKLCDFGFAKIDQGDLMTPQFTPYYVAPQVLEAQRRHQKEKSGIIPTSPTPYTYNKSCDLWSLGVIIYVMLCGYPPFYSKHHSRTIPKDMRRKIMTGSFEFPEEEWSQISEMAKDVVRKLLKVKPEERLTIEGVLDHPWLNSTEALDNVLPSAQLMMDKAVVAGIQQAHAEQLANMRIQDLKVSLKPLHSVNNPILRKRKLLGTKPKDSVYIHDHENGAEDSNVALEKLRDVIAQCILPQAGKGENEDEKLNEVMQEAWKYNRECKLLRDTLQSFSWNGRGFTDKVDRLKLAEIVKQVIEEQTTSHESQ
// assign true (1) if residual activity falls strictly below 90%, else false (0) (ties count as false (0))

Consider the following illustrative entries.
O=c1cc(N2CCOCC2)oc2c1ccc1ccccc12 ... false (0)
Nc1ncnc2c1c(-c1ccc(Oc3ccccc3)cc1)cn2C1CCCC1 ... false (0)
Oc1cccc(-c2nc(N3CCOCC3)c3oc4ncccc4c3n2)c1 ... true (1)

Query: I'd appreciate it if you could check whether `N#CC(C#N)=C(N)/C(C#N)=C/c1ccc(O)cc1` has residual activity smaller than 90%.
Response: false (0)
